# Run Description: NFAT Signaling Pathway (AID 444);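 note: carbachol stimulus at about its EC50 of 1 µM final; % is set by controls: 0 for no effect and ±100 for the full control effect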
# Measurement Parameters: Jurkat NFAT-bla M1, carbachol, beta-lactamase ratio, 5 h; at 17.2 µM (top of the series) unless noted
Results filed as inconclusive are left out.
Value Kind: activity change, negative = inhibition (%)

> print(dat)
                                    compound  measured
 1  O=C1NC(c2cccs2)Nc2ccccc21 (configuration not stated)     -4.93
 2  CCCC1C2C(=O)N(c3ccccc3OC)C(=O)C2ON1c1ccccc1 (configuration not stated)      4.89
 3       Cc1cc(N/C=C/C(=O)c2cccc3ccccc23)no1     -3.82
 4        Cc1ccccc1NC(=O)NCCc1nc2ccccc2[nH]1     -10.3
 5               C=C(Br)Cn1c(CCCC)nc2ccccc21       1.5
 6    FC(F)(F)c1cccc(-n2cccc2/C=N/n2cnnc2)c1    -0.658
 7  C=CCOC(=O)C1=C(C)NC(SCC(=O)Nc2ccc(C)c(Cl)c2)=C(C#N)C1c1ccco1 (configuration not stated)      7.32
 8                 CCSc1nnc(N(CCC#N)CCC#N)s1     -7.48
 9             O=C(Nc1ccccn1)c1ccc(=O)[nH]n1     0.366
10  Cc1ccc(C2CC(c3cccs3)n3nc(N)nc3N2)cc1 (configuration not stated)      6.31
11  CC1(c2ccco2)NC(=O)NC1=O (configuration not stated)      1.83
12  Cn1c2c(c(=O)n(C)c1=O)C(NC(=O)C(C)(C)C)(C(F)(F)F)C(=O)N2 (configuration not stated)      -2.4

----------
# Test system: ICS
# Run Description: qHTS profiling for inhibitors of Plasmodium falciparum proliferation (AID 504749); note: nearly all actives have a fitted effect of over 60% in size
# Measurement Parameters: P. falciparum in erythrocytes, SYBR Green DNA, 72 h; series mostly up to 28.7 µM
Results filed as inconclusive are left out. Active and inactive are the calls of the source. Calls come from the whole dose curve; as a rule, active = well fitted inhibition curve with a large enough effect; inconclusive = small, poorly fitted or top-dose-only effect; inactive = flat fitted curve, though single readings scatter.
Possible outcomes: true (1) for active, false (0) for inactive

Molecule	Label
C/C(=C(/CCOC(=O)C(C)C)SS/C(CCOC(=O)C(C)C)=C(\C)N(C=O)Cc1cnc(C)nc1N)N(C=O)Cc1cnc(C)nc1N	false (0)
CC(O)C(N)C(=O)O (centres undefined)	false (0)
CC(=O)NC[C@@H]1CN(c2ccc(N3CCOCC3)c(F)c2)C(=O)O1	false (0)
CCCCC(=O)OCC(=O)[C@]1(O)Cc2c(O)c3c(c(O)c2[C@H](OC2CC(NC(=O)C(F)(F)F)C(O)C(C)O2)C1)C(=O)c1c(OC)cccc1C3=O (some centres undefined)	true (1)
Cc1cnc(C(=O)O)cn1	false (0)
O=C(OC[C@@H]1O[C@@](O)(COC(=O)c2cccnc2)[C@H](OC(=O)c2cccnc2)[C@H]1OC(=O)c1cccnc1)c1cccnc1	false (0)
OCC(O)C(O)C(O)C(O)CO (centres undefined)	false (0)
C=C1CC[C@H](O)C/C1=C/C=C1\CCC[C@]2(C)[C@@H]([C@H](C)CC[C@@H](O)C(C)(C)O)CC[C@@H]12	true (1)
C=NC(C(=O)NC1C(=O)N2C1SC(C)(C)C2C(=O)O)c1ccccc1 (centres undefined)	false (0)
NC(C(=O)O)c1ccc(O)cc1 (centres undefined)	false (0)
C=C[C@H]1CN2CCC1C[C@H]2[C@H](O)c1ccnc2ccc(OC)cc12 (some centres undefined)	true (1)
CO/N=C(/C(=O)N[C@@H]1C(=O)N2C(C(=O)O)=C(C[n+]3ccc(N)n3CCO)CS[C@H]12)c1csc(N)n1	false (0)
OCCOC[C@H]1O[C@H](OCCO)[C@H](OCCO)[C@@H](OCCO)[C@@H]1OCCO (tested in a mixture with another compound)	false (0)
CC1(C)OC[C@@H]2O[C@@]3(C(=O)O)OC(C)(C)O[C@@H]3[C@@H]2O1	false (0)
CC1C(=O)C(=O)C=CN1C (centres undefined)	false (0)
CCCC[C@H]1C(=O)N(c2ccccc2)N(c2ccc(O)cc2)C1=O	false (0)
CC(CN1CC(=O)NC(=O)C1)N1CC(=O)NC(=O)C1 (centres undefined)	false (0)
CO/N=C(/C(=O)N[C@@H]1C(=O)N2C(C(=O)O)=C(CSc3nc(C)c(CC(=O)O)s3)CS[C@H]12)c1csc(N)n1	false (0)
O=C(O)[C@H]1C[C@@H](CP(=O)(O)O)CCN1	false (0)

----------
# System: DIV30
# Run Description: qHTS profiling for inhibitors of Plasmodium falciparum proliferation (AID 504749); note: nearly all actives have a fitted effect of over 60% in size
# Measurement Parameters: P. falciparum in erythrocytes, SYBR Green DNA, 72 h; series mostly up to 28.7 µM
Records with an inconclusive call do not appear. The source made the active and inactive calls. The call rests on the fitted dose curve; in most records, active means well fitted inhibition curve with a large enough effect; inconclusive means small, poorly fitted or top-dose-only effect; inactive means flat fitted curve, though single readings scatter.
Possible outcomes: Y (active), N (inactive)

Compound	Label
CO[C@H]1C[C@@H]2CC[C@@H](C)[C@@](O)(O2)C(=O)C(=O)N2CCCC[C@H]2C(=O)O[C@H]([C@H](C)C[C@@H]2CC[C@@H](O)[C@H](OC)C2)CC(=O)[C@H](C)/C=C(\C)[C@@H](O)[C@@H](OC)C(=O)[C@H](C)C[C@H](C)/C=C/C=C/C=C/1C	Y
CCC(C(=O)O)C1OC(C(C)C(O)C(C)C(=O)C(CC)C2OC3(C=CC(O)C4(CCC(C)(C5CCC(O)(CC)C(C)O5)O4)O3)C(C)CC2C)C(C)CC1C (configuration not stated)	Y
NC(=O)c1ncn(C2OC(CO)C(O)C2O)c1N (configuration not stated)	N
O=C(OC[C@@H]1O[C@@](O)(COC(=O)c2cccnc2)[C@H](OC(=O)c2cccnc2)[C@H]1OC(=O)c1cccnc1)c1cccnc1	N
O=[N+]([O-])O[C@H]1CO[C@H]2[C@@H]1OC[C@H]2O	N
O=C1[C@@H]2C[C@@H]3C[C@H]1C[C@@](O)(C3)C2	N
COc1cccc(OC)c1C(=O)NC1C(=O)N2C1SC(C)(C)C2C(=O)O (configuration not stated)	N
CC(C)(C)C(=O)OCC(=O)C1CCC2C3CCC4=CC(=O)CCC4(C)C3CCC12C (configuration not stated)	N
Cc1cc2nc3c(=O)[nH]c(=O)nc-3n(CC(O)C(O)C(O)COP(=O)(O)O)c2cc1C (configuration not stated)	N
CC1OC(OC2CCC3(C)C(CCC4C3CC(O)C3(C)C(C5=CC(=O)OC5)CCC43O)C2)CC(O)C1OC1CC(O)C(OC2CC(O)C(OC3OC(CO)C(O)C(O)C3O)C(C)O2)C(C)O1 (configuration not stated)	N
C=C1/C(=C\C=C2/CCC[C@]3(C)[C@@H]([C@H](C)/C=C/[C@@H](O)C4CC4)CC[C@@H]23)C[C@@H](O)C[C@@H]1O	N
CC(O)C1CCC2C3CCC4CC(O)CCC4(C)C3CCC12C (configuration not stated)	N
CC1(C)SC2[C@@H](N=CN3CCCCCC3)C(=O)N2[C@H]1C(=O)O (some centres not stated)	N
Cn1cc(C(=O)[C@@H]2CCc3[nH]cnc3C2)c2ccccc21	N
OCC(CO)NC1C[C@](O)(CO)[C@@H](O)[C@H](O)[C@H]1O (some centres not stated)	N
CCCCC(=O)OC1CCC2C3CCc4cc(O)ccc4C3CC[C@]12C (some centres not stated)	N
CC1=C(c2ccc(NN=C(C#N)C#N)cc2)NNC(=O)C1	N

----------
# Run Description: AP1 Signaling Pathway (AID 357);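 note: ME-180 reporter cells stimulated with EGF at its EC50 level; % is set by controls: 0 for no effect and ±100 for the full control effect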
# Measurement Parameters: ME-180 (cervical carcinoma) AP-1-bla reporter, EGF-induced, beta-lactamase ratio, 5 h; at 17.2 µM (top of the series) unless noted
Records with an inconclusive call do not appear.
Form field: activity change, negative = inhibition (one value per entry).
Value Kind: activity change, negative = inhibition (%)

> print(dat)
                                    compound                              value.kind  measured
 1  CCOC(=O)c1ccc2nc(NC(NC(C)=O)(C(=O)OC)C(F)(F)F)sc2c1 (stereo not drawn)  activity change, negative = inhibition       -14
 2  CC12CN3CC(C)(CN(C1)C3c1ccc(Br)cc1O)C2 (stereo not drawn)  activity change, negative = inhibition     -9.61
 3              CCCNC(=O)N(C)c1nncnc1C(=O)NC  activity change, negative = inhibition     -9.23
 4              COc1ccc(C(C)=O)cc1CSCCC(=O)O  activity change, negative = inhibition      3.88
 5  CCOc1ccc(CCNC(=O)C(O)c2ccccc2)cc1 (stereo not drawn)  activity change, negative = inhibition        13
 6  CCc1cc(=O)oc2cc(C)c(CN3CCCC(C)C3)c(O)c12 (stereo not drawn)  activity change, negative = inhibition      1.74
 7  CCOCCn1c(SCc2c(F)cccc2Cl)nc2c1c(=O)[nH]c(=O)n2C  activity change, negative = inhibition     -8.65
 8  COc1ccc(C(=O)N2CCCC(c3ccccc3)C2)cc1 (stereo not drawn)  activity change, negative = inhibition     -9.81
 9  CN(C)C(=O)COn1c(SCC(=O)N(C)C)nc2ccccc2c1=O  activity change, negative = inhibition      6.36
10  N#Cc1ccc(-c2cccnc2)nc1SCC(=O)Nc1sc2c(c1C#N)CCC2  activity change, negative = inhibition     -1.23
11         COc1ccc2c(=O)c(-c3nc(C)cs3)coc2c1  activity change, negative = inhibition      13.2
12  O=C(CSc1nnc(-c2ccco2)c(-c2ccco2)n1)Nc1ccccc1  activity change, negative = inhibition      3.29
13  O=S(=O)(c1ccccc1)N(CC(O)CN1CCCCC1)c1ccccc1 (stereo not drawn)  activity change, negative = inhibition     -4.48
14           Cn1c(NCCN2CCCCC2)cc(=O)n(C)c1=O  activity change, negative = inhibition      6.19
15  C=CCOc1nc2c(c(=O)n(Cc3ccc(Cl)cc3)c(=O)n2C)n1C  activity change, negative = inhibition     -10.1
16  Cc1c(/C(O)=C2/C(=O)C(=O)N(CCCN3CCOCC3)C2c2ccncc2)cnn1-c1ccccc1 (stereo not drawn)  activity change, negative = inhibition      5.29
17     ClC(Br)=C(n1cnc2ccccc21)n1cnc2ccccc21  activity change, negative = inhibition     -25.5
18  Cn1c(=O)c2c3c(sc2n2c(SCC(N)=O)nnc12)CC(C(C)(C)C)CC3 (stereo not drawn)  activity change, negative = inhibition     -9.72
19     CN(C)c1nc2sc3c(c2c(=O)n1C)CC(C)(C)OC3  activity change, negative = inhibition     -6.89
20          Cc1occc1C(=O)OCC(=O)Nc1ccc(F)cc1  activity change, negative = inhibition      17.4
21    COc1cc(NC2=CC(=O)CC(C)(C)C2)cc(OC)c1OC  activity change, negative = inhibition      7.47
22  CCOC(=O)c1c(C)n(C)c2ccc(O)c(S(=O)(=O)c3ccccc3)c12  activity change, negative = inhibition     -9.19
23  COc1cc2c(C(=O)N3CCN(c4ccccc4)CC3)c(C)oc2cc1Br  activity change, negative = inhibition      3.59
